// pKd lookup, one value per entry
Target: T1, recombinant human IL13Rα2 fused to an Fc domain of human IgG1 (hIL13Rα2-Fc) (human, UniProt Q14627 27-343, limits assumed)
T1 construct: Bought construct (R&D Systems); The Fc can be removed by Factor Xa, so a Factor Xa site lies between the parts; not shown: Fc domain of human IgG1
T1 sequence (looked up): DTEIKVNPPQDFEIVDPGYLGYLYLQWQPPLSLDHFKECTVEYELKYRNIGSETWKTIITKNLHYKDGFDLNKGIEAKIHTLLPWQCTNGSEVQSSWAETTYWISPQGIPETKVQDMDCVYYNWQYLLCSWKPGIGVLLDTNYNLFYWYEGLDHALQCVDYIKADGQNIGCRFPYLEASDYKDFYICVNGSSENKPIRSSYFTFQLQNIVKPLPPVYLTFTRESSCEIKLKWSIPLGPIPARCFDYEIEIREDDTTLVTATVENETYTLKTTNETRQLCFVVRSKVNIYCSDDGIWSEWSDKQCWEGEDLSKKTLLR
Experiment: Octet (BLI); nanobody on Ni-NTA sensor, IL13Rα2-Fc in solution
Lab note: report pKd as minus log10 of the concentration in molar units, number only.

Known pKd results, listed for orientation:
Binder: Llama single domain anti-IL13Rα2 Clone 1 (LSD1) (VHH, Captured on a Ni-NTA sensor in the Octet assay, so a His tag is implied; the tag is not described for this construct; also called parental; clone 1 parental) VHH: DVQLVESGGGLVQPGGSLRLSCAASGFTSDYYIIGWFRQAPGKEREGVSCISSKYANTNYADSVKGRFTQSRGAAKNTVYLQMNALKPEDTAVYYCAADTRRYTCPDIATMHRNFDSWGQGTQVTVSS
Readout Number: 9.20
--
Binder: Humanized Llama Single domain anti-IL13Rα2 Clone 1-h8 (H1-LSD1) (VHH, Captured on a Ni-NTA sensor, so a His tag is implied; the tag is not described) VHH: EVQLVESGGGLVQPGGSLRLSCAASGFTSDYYIMGWFRQAPGKGLEGVSCISSKYANTYYADSVKGRFTISRDNAKNTLYLQMNSLRPEDTAVYYCAADTRRYTCPDIATMHRNFDSWGQGTLVTVSS
Readout Number: 8.71
--
Binder: anti-IL13Rα2 Clone 1 humanized variant 1-h9 (VHH) VHH: EVQLVESGGGLVQPGGSLRLSCAASGFTSDYYIMGWFRQAPGKGLEWVSCISSKYANTYYADSVKGRFTISRDNAKNTLYLQMNSLRPEDTAVYYCAADTRRYTCPDIATMHRNFDSWGQGTLVTVSS
Readout Number: 8.72

Reported pKd, binder Humanized Llama single domain anti-IL13Rα2 Clone 1-h10 (H2-LSD1) (VHH, Captured on a Ni-NTA sensor, so a His tag is implied; the tag is not described) VHH: EVQLVESGGGLVQPGGSLRLSCAASGFTSDYYIMGWVRQAPGKGLEWVSCISSKYANTYYADSVKGRFTISRDNAKNTLYLQMNSLRPEDTAVYYCAADTRRYTCPDIATMHRNFDSWGQGTLVTVSS : ____
8.84

Every entry's value here was drawn from patent US20210315933A1.
